Value source: ChEMBL document CHEMBL4359898

system: A549; experiment: Cytotoxicity against human A549 cells assessed as reduction in cell viability incubated for 72 hrs by MTT assay; settings: A549, 72 h
Values of IC50 strictly less than 10 µM map to met, and values of at least 10 µM map to not met.

Quick check: does `COc1ccc2nc(NC(=O)c3cn(-c4ccccc4)nc3-c3ccc(F)cc3)sc2c1` have IC50 under 10 µM?
not met

Quick check: does `O=C(Nc1nc2ccc(Cl)cc2s1)c1cn(-c2ccccc2)nc1-c1ccc(F)cc1` have IC50 under 10 µM?
met

Quick check: does `O=C(Nc1nc2ccccc2s1)c1cn(-c2ccccc2)nc1-c1ccccc1` have IC50 under 10 µM?
not met

Quick check: does `COc1ccc(-c2nn(-c3ccccc3)cc2C(=O)Nc2nc3ccc(C)cc3s2)cc1` have IC50 under 10 µM?
not met

Quick check: does `O=C(Nc1nc2ccc(F)cc2s1)c1cn(-c2ccccc2)nc1-c1ccc(F)cc1` have IC50 under 10 µM?
met

Quick check: does `O=C(Nc1nc2ccc(Cl)cc2s1)c1cn(-c2ccccc2)nc1-c1ccccc1` have IC50 under 10 µM?
met

====

tested on: PC-3; assay: Cytotoxicity against human PC3 cells assessed as reduction in cell viability incubated for 72 hrs by MTT assay; conditions: PC-3, 72 h
Listed molecules paired with reported IC50
// return numeric value only (unit: µM, not printed)

sample-smiles | IC50 [µM]
COc1ccc2nc(NC(=O)c3cn(-c4ccccc4)nc3-c3ccc(F)cc3)sc2c1 | 12.8
O=C(Nc1nc2ccc(F)cc2s1)c1cn(-c2ccccc2)nc1-c1ccc(Cl)cc1 | 5.79
Cc1ccc2nc(NC(=O)c3cn(-c4ccccc4)nc3-c3ccc(Cl)cc3)sc2c1 | 14.5
O=C(Nc1nc2ccccc2s1)c1cn(-c2ccccc2)nc1-c1ccc(F)cc1 | 7.13
O=C(Nc1nc2ccccc2s1)c1cn(-c2ccccc2)nc1-c1ccc(Cl)cc1 | 7.75

Fill in reported IC50 for this entry: `COc1ccc(-c2nn(-c3ccccc3)cc2C(=O)Nc2nc3ccc(C)cc3s2)cc1`
15.9

====

system: HT-29; test: Cytotoxicity against human HT-29 cells assessed as reduction in cell viability incubated for 72 hrs by MTT assay; settings: HT-29, 72 h
quantity: pIC50
Quick note: pIC50 values are minus log10 of concentrations in mol/L.

Below: 5 compounds and their reported pIC50.
sample-smiles | target-or-system | pIC50
COc1ccc(-c2nn(-c3ccccc3)cc2C(=O)Nc2nc3ccc(C)cc3s2)cc1 | HT-29 | 4.67
COc1ccc(-c2nn(-c3ccccc3)cc2C(=O)Nc2nc3ccc(F)cc3s2)cc1 | HT-29 | 5.25
O=C(Nc1nc2ccccc2s1)c1cn(-c2ccccc2)nc1-c1ccc(F)cc1 | HT-29 | 5.04
COc1ccc2nc(NC(=O)c3cn(-c4ccccc4)nc3-c3ccc(F)cc3)sc2c1 | HT-29 | 4.48
O=C(Nc1nc2ccc(F)cc2s1)c1cn(-c2ccccc2)nc1-c1ccccc1 | HT-29 | 5.01

Fill in pIC50 for `COc1ccc2nc(NC(=O)c3cn(-c4ccccc4)nc3-c3ccc(Cl)cc3)sc2c1` tested with HT-29.
4.73

Fill in pIC50 for `COc1ccc(-c2nn(-c3ccccc3)cc2C(=O)Nc2nc3ccccc3s2)cc1` tested with HT-29.
4.98

====

Listed molecules paired with reported pIC50
tested on: PC-3; assay: Cytotoxicity against human PC3 cells assessed as reduction in cell viability incubated for 72 hrs by MTT assay; settings: PC-3, 72 h
Quick note: pIC50 values are minus log10 of concentrations in mol/L.

sample-smiles | reported-result
COc1ccc(-c2nn(-c3ccccc3)cc2C(=O)Nc2nc3ccc(F)cc3s2)cc1 | 5.31
COc1ccc2nc(NC(=O)c3cn(-c4ccccc4)nc3-c3ccc(Cl)cc3)sc2c1 | 4.53
COc1ccc(-c2nn(-c3ccccc3)cc2C(=O)Nc2nc3ccccc3s2)cc1 | 5.18
COc1ccc(-c2nn(-c3ccccc3)cc2C(=O)Nc2nc3ccc(Cl)cc3s2)cc1 | 5.19
O=C(Nc1nc2ccccc2s1)c1cn(-c2ccccc2)nc1-c1ccccc1 | 4.98
O=C(Nc1nc2ccc(F)cc2s1)c1cn(-c2ccccc2)nc1-c1ccccc1 | 5.49

Fill in pIC50 for `O=C(Nc1nc2ccc(Cl)cc2s1)c1cn(-c2ccccc2)nc1-c1ccc(F)cc1` tested with PC-3.
5.50

Fill in pIC50 for `Cc1ccc2nc(NC(=O)c3cn(-c4ccccc4)nc3-c3ccccc3)sc2c1` tested with PC-3.
4.80

Fill in pIC50 for `Cc1ccc2nc(NC(=O)c3cn(-c4ccccc4)nc3-c3ccc(F)cc3)sc2c1` tested with PC-3.
4.69

Fill in pIC50 for `O=C(Nc1nc2ccc(Cl)cc2s1)c1cn(-c2ccccc2)nc1-c1ccccc1` tested with PC-3.
5.43

====

test system: HEK-293T; test: Cytotoxicity against HEK293T cells assessed as reduction in cell viability incubated for 72 hrs by MTT assay; details: Homo sapiens
Listed molecules paired with reported IC50
// return numeric value only (unit: µM, not printed)

Below: 3 molecules and their reported IC50.
sample-smiles | IC50, µM
COc1ccc(-c2nn(-c3ccccc3)cc2C(=O)Nc2nc3ccccc3s2)cc1 | 18.9
O=C(Nc1nc2ccc(F)cc2s1)c1cn(-c2ccccc2)nc1-c1ccccc1 | 17.6
O=C(Nc1nc2ccc(Cl)cc2s1)c1cn(-c2ccccc2)nc1-c1ccc(Cl)cc1 | 15.7

Fill in reported IC50 for this entry: `O=C(Nc1nc2ccc(Cl)cc2s1)c1cn(-c2ccccc2)nc1-c1ccc(F)cc1`
45.7

Fill in reported IC50 for this entry: `COc1ccc2nc(NC(=O)c3cn(-c4ccccc4)nc3-c3ccc(Cl)cc3)sc2c1`
29.6

Fill in reported IC50 for this entry: `COc1ccc(-c2nn(-c3ccccc3)cc2C(=O)Nc2nc3ccc(F)cc3s2)cc1`
15.4

Fill in reported IC50 for this entry: `Cc1ccc2nc(NC(=O)c3cn(-c4ccccc4)nc3-c3ccc(Cl)cc3)sc2c1`
35.6

Fill in reported IC50 for this entry: `O=C(Nc1nc2ccc(F)cc2s1)c1cn(-c2ccccc2)nc1-c1ccc(F)cc1`
16.7

Fill in reported IC50 for this entry: `COc1ccc(-c2nn(-c3ccccc3)cc2C(=O)Nc2nc3ccc(Cl)cc3s2)cc1`
12.6

Fill in reported IC50 for this entry: `O=C(Nc1nc2ccccc2s1)c1cn(-c2ccccc2)nc1-c1ccc(F)cc1`
33.4

Fill in reported IC50 for this entry: `O=C(Nc1nc2ccccc2s1)c1cn(-c2ccccc2)nc1-c1ccc(Cl)cc1`
39.6

Fill in reported IC50 for this entry: `O=C(Nc1nc2ccc(Cl)cc2s1)c1cn(-c2ccccc2)nc1-c1ccccc1`
21.3

====

Listed molecules paired with reported IC50
system: HT-29; test: Cytotoxicity against human HT-29 cells assessed as reduction in cell viability incubated for 72 hrs by MTT assay; conditions: HT-29, 72 h
// return numeric value only (unit: µM, not printed)

sample-smiles | IC50 [µM]
Cc1ccc2nc(NC(=O)c3cn(-c4ccccc4)nc3-c3ccc(Cl)cc3)sc2c1 | 23.7
O=C(Nc1nc2ccccc2s1)c1cn(-c2ccccc2)nc1-c1ccc(Cl)cc1 | 13.7
O=C(Nc1nc2ccc(Cl)cc2s1)c1cn(-c2ccccc2)nc1-c1ccc(F)cc1 | 3.32
O=C(Nc1nc2ccc(Cl)cc2s1)c1cn(-c2ccccc2)nc1-c1ccc(Cl)cc1 | 4.55
Cc1ccc2nc(NC(=O)c3cn(-c4ccccc4)nc3-c3ccc(F)cc3)sc2c1 | 22.9
O=C(Nc1nc2ccc(F)cc2s1)c1cn(-c2ccccc2)nc1-c1ccc(F)cc1 | 4.16
O=C(Nc1nc2ccc(F)cc2s1)c1cn(-c2ccccc2)nc1-c1ccc(Cl)cc1 | 4.97
COc1ccc(-c2nn(-c3ccccc3)cc2C(=O)Nc2nc3ccc(Cl)cc3s2)cc1 | 6.57

Fill in reported IC50 for this entry: `O=C(Nc1nc2ccc(Cl)cc2s1)c1cn(-c2ccccc2)nc1-c1ccccc1`
7.81

Fill in reported IC50 for this entry: `O=C(Nc1nc2ccccc2s1)c1cn(-c2ccccc2)nc1-c1ccccc1`
16.8

====

system: A549; assay: Cytotoxicity against human A549 cells assessed as reduction in cell viability incubated for 72 hrs by MTT assay; details: A549, 72 h
Listed molecules paired with reported pIC50
Quick note: pIC50 values are minus log10 of concentrations in mol/L.

Fill in reported pIC50 for this entry: `O=C(Nc1nc2ccccc2s1)c1cn(-c2ccccc2)nc1-c1ccc(F)cc1`
5.05

Fill in reported pIC50 for this entry: `COc1ccc2nc(NC(=O)c3cn(-c4ccccc4)nc3-c3ccc(Cl)cc3)sc2c1`
4.50

Fill in reported pIC50 for this entry: `COc1ccc(-c2nn(-c3ccccc3)cc2C(=O)Nc2nc3ccccc3s2)cc1`
4.86

Fill in reported pIC50 for this entry: `O=C(Nc1nc2ccccc2s1)c1cn(-c2ccccc2)nc1-c1ccc(Cl)cc1`
4.99

Fill in reported pIC50 for this entry: `O=C(Nc1nc2ccc(F)cc2s1)c1cn(-c2ccccc2)nc1-c1ccc(Cl)cc1`
5.05

Fill in reported pIC50 for this entry: `COc1ccc(-c2nn(-c3ccccc3)cc2C(=O)Nc2nc3ccc(Cl)cc3s2)cc1`
5.33

Fill in reported pIC50 for this entry: `Cc1ccc2nc(NC(=O)c3cn(-c4ccccc4)nc3-c3ccc(Cl)cc3)sc2c1`
4.73
